B1: library; a variant is named by its letters at N, in order (parent)
chain: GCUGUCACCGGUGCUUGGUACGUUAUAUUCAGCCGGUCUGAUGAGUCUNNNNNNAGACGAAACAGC

# Variants of: B1
# assayComment: FACS-Seq fitted mean relative fluorescence mCherry/BFP without ligand (log10 relative fluorescence); HEK293T overexpressing SLC46A1; higher = higher reporter protein expression
# conditionDetails: without (6R,S)-folinic acid; ligand present: no
measurementKind: FACS-Seq fitted mean (log10)
API doc: respond with a numeric literal and nothing else, no unit.

In: Provide only the value of recorded FACS-Seq fitted mean (log10) for ACAGAA
Out: 0.191

In: Specify measured FACS-Seq fitted mean (log10) for AUGAAU .
Out: 0.232

In: Quickly give me recorded FACS-Seq fitted mean (log10) for UUAAUG
Out: 0.316

In: Find the measured FACS-Seq fitted mean (log10) of GGAUAA and report it.
Out: 0.686

In: Return FACS-Seq fitted mean (log10) (reported value) for this variant: UUAUGA
Out: 0.0124

In: Give me measured FACS-Seq fitted mean (log10), please, for this variant: UAAUGC
Out: 0.147

Just for reference, the supplement of paper PMC6757056 is where these values come from.
